// provenance: paper PMC8313326

- system_under_test: butyrylcholinesterase (BChE, E.C. 3.1.1.8) (Equus caballus, UniProt P81908)
- Construct: butyrylcholinesterase (BChE, E.C. 3.1.1.8, from equine serum); purchased Sigma-Aldrich; host or cells: equine serum
- Sequence (P81908 whole entry): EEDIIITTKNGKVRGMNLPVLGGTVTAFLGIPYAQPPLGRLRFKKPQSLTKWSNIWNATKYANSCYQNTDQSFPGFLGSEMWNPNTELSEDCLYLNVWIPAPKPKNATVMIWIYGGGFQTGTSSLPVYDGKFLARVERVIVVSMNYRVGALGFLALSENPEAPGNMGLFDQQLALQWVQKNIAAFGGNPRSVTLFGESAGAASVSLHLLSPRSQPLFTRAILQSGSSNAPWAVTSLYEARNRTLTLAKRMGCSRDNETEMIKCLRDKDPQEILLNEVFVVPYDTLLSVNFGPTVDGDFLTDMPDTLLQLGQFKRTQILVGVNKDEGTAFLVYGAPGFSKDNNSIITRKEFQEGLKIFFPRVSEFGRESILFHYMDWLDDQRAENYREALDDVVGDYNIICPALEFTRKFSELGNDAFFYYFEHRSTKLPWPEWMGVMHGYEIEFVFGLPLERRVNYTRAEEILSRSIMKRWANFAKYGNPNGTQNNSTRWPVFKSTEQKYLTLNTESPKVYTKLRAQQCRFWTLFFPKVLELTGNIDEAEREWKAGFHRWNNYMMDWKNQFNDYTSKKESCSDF
- assay_name: biochemical
The entries below come with measured IC50 values attached.
assay_endpoint: IC50

>>> test_value("C=C(C)[C@@H]1CC[C@]2(C(=O)O)CC[C@]3(C)[C@H](CC[C@@H]4[C@@]5(C)CC[C@H](O)C(C)(C)[C@@H]5CC[C@]43C)[C@@H]12")
"> 100 µM"
>>> test_value("CC(=O)O[C@H]1CC[C@@]2(C)C(CC[C@]3(C)C2CC=C2C4CC(C)(C)CC[C@]4(C(=O)O)CC[C@]23C)C1(C)C (stereo partly drawn)")
"77.1 µM"
>>> test_value("CC[C@H](CC[C@@H](C)[C@H]1CC[C@H]2[C@@H]3CC=C4C[C@@H](O)CC[C@]4(C)[C@H]3CC[C@]12C)C(C)C")
"> 100 µM"

###

The entries below come with measured pIC50 values attached.
- system_under_test: acetylcholinesterase (AChE, E.C. 3.1.1.7, Type V-S) (Electrophorus electricus)
- Construct: Type V-S, lyophilized powder, from electric eel; purchased Sigma-Aldrich; host or cells: electric eel
- Sequence (O42275 24-633): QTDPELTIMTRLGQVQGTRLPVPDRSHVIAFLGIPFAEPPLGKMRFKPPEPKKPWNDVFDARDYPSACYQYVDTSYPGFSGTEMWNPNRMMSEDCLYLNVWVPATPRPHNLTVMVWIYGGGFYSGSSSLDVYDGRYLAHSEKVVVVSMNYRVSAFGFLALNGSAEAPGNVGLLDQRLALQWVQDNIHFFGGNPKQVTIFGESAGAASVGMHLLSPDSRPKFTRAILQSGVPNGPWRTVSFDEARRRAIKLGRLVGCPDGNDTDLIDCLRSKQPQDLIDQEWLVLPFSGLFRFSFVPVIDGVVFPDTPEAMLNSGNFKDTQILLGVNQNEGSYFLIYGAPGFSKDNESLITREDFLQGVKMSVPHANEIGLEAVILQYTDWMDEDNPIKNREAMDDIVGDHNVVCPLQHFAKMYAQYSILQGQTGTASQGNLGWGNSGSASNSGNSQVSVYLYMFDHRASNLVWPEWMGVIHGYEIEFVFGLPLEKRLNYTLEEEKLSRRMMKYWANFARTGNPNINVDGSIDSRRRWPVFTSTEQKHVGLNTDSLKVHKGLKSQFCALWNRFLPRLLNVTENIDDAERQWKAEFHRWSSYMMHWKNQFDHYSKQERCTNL
- assay_name: biochemical
pIC50: −log10 of the molar value.
assay_endpoint: pIC50

>>> test_value("C=C(C)[C@@H]1CC[C@]2(C(=O)O)CC[C@]3(C)[C@H](CC[C@@H]4[C@@]5(C)CC[C@H](O)C(C)(C)[C@@H]5CC[C@]43C)[C@@H]12")
"< 4.00"
>>> test_value("CC(=O)O[C@H]1CC[C@@]2(C)C(CC[C@]3(C)C2CC=C2C4CC(C)(C)CC[C@]4(C(=O)O)CC[C@]23C)C1(C)C (stereo partly drawn)")
"< 4.00"
>>> test_value("CC[C@H](CC[C@@H](C)[C@H]1CC[C@H]2[C@@H]3CC=C4C[C@@H](O)CC[C@]4(C)[C@H]3CC[C@]12C)C(C)C")
"< 4.00"

###

- system_under_test: butyrylcholinesterase (BChE, E.C. 3.1.1.8) (Equus caballus, UniProt P81908)
- Construct: butyrylcholinesterase (BChE, E.C. 3.1.1.8, from equine serum); purchased Sigma-Aldrich; host or cells: equine serum
- assay_name: biochemical
- test_parameters: isolated compounds; mean ± SD, three independent experiments; read-out: BChE IC50
pIC50: −log10 of the molar value.
assay_endpoint: pIC50

>>> test_value("CC1(C)CC[C@]2(C(=O)O)CC[C@]3(C)C(=CCC4[C@@]5(C)CC[C@H](OC(=O)/C=C/c6ccc(O)cc6)C(C)(C)C5CC[C@]43C)C2C1 (stereo partly shown) [compound 3, 3-O-(Z)-Coumaroyl oleanolic acid]")
"< 4.00"

###

- system_under_test: butyrylcholinesterase (BChE, E.C. 3.1.1.8) (Equus caballus)
- Construct: butyrylcholinesterase (BChE, E.C. 3.1.1.8, from equine serum); purchased Sigma-Aldrich; host or cells: equine serum
- assay_name: biochemical
- test_parameters: BChE IC50, isolated compounds; mean ± SD, three independent experiments
pIC50: −log10 of the molar value.
assay_endpoint: pIC50

>>> test_value("CC1(C)CC[C@]2(C(=O)O)CC[C@]3(C)C(=CC[C@@H]4[C@@]5(C)CC[C@H](O)C(C)(C)[C@@H]5CC[C@]43C)[C@@H]2C1")
4.14
